# Measured On: T1, human PVRIG on cells (human, UniProt Q6DKI7 1-326)
# T1 construct: whole, on cells; over-expressed on HEK cells or endogenous on Jurkat and CD8 T cells; also called hPVRIG; HEK hPVRIG cells
# T1 sequence (looked up): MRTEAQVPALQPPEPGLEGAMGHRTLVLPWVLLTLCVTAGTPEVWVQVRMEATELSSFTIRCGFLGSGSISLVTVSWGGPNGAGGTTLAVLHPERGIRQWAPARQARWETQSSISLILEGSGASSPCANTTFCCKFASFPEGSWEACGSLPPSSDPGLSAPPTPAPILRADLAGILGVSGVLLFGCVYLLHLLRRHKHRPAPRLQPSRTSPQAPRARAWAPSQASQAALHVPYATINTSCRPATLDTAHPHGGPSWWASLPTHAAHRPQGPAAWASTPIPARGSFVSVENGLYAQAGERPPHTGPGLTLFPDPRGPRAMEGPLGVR
# Run Description: FACS, Jurkat cells, relative to control, 3.3ug/ml
Response key: rule met means gMFIr Jurkat >= 4; rule not met means gMFIr Jurkat < 4.

Binder | Class
CHA.7.534 (antibody, V domains shown) VH: EVQLQQSGAELVKPGASVRLSCTASGFSIRDTYIHWVKQRPEQGLDWIGKIDPANGKSEYDPKFQGRATMTTDTSSNTAYLQLSSLTSEDTAVYYCTRYGYYPYFDVWGAGTTVTVFS VL: SIVMTQTPKFLLVSAGDRVAITCKASQSVRHDVVWYQQKPGQSPKLLIYYASSRYTGVPDRFTGSGYGTDFTFTISTVQAEDLALYFCLQDFSSPWTFGGGTKLEIK | rule met

Determine whether measured gMFIr Jurkat meets or exceeds 4 for CHA.7.502 (antibody, V domains shown) VH: DVQLVESGGDLVQPGGSRKLSCTASGFTFSNFGMHWVRQAPEKGLEWVAYISSGSSTIYYADTVKGRFTISRDNPENTLFLQMTSLRSEDTAMYYCTRLDYYTNSYSMDHWGQGTSVTVSS VL: QIVLTQSPALMSASPGEKVTLTCSASSSLPYIYWYQQKPGSSPKPWIYLTSNLASGVPARFSGSRSGTSYSLTISSVEAEDAATYYCQQWSSNPFTFGSGTKLEIK
rule met

Determine whether measured gMFIr Jurkat meets or exceeds 4 for CHA.7.530 (antibody, V domains shown) VH: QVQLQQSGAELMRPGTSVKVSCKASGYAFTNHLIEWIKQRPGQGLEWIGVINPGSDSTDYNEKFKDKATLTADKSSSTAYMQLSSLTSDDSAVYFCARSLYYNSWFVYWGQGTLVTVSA VL: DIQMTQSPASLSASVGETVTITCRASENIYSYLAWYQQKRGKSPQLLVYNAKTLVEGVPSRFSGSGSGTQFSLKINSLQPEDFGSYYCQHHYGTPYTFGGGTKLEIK
rule met

Determine whether measured gMFIr Jurkat meets or exceeds 4 for CHA.7.512 (antibody, V domains shown) VH: QIQLVQSGPELKKPRETVKISCKASGYTFTDYSMHWVKQAPGKGLKWMGWINTETGEPTYADDFKGRFAFSLEASASSAYLQINILKDEDTATYFCARSRGGYYEDYYALDYWGQGTSVTVSS VL: DIQMTQSPASLSASVGESVTITCRASGNIHYYLAWYQQKQGKSPQLLVYNAKNLADGVPSRFSGSGSGTQFSLKINSLQPEDFGSYYCQHFWISPPTFGGGTKLEIK
rule not met
